Source of measurements: patent US20140011732A1

Listing: EC50 of selected binders
# target_or_system: T1, human serum albumin (HSA) (human, UniProt P02768 25-609, biotinylated)
# T1 construct: also called biotinylated HSA
# assay_info: competition SPA on biotinylated HSA, 125I acylated GLP-1 tracer;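 also: streptavidin SPA beads carrying biotinylated HSA, competition incubated 20 h at room temperature, plates then read on a TopCount counter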
Starred links: 1 amine or outer side, 2 acyl side, 3 side chain; linkers in the order of their positions; H or OH if unused. Non-standard residues stand in square brackets, D forms with d. Groups on a side chain read outwards from the residue. No end group written: not given here. *: point of attachment. C18 diacid = O=C(O)CCCCCCCCCCCCCCCCC(=O)*; d(βAsp) = O=C(O)[C@@H](CC(=O)[*:2])N[*:1]; Desaminohistidyl = O=C(CCc1c[nH]cn1)*; AEEA = NCCOCCOCC(=O)O; Aib = CC(C)(N)C(=O)O; Inp = O=C(O)C1CCNCC1; Bn = c1ccc(C*)cc1

[
  {
    "binder": "H[Aib]EGTFTSDVSSYK([AEEA-AEEA-d(βAsp)-Inp-C18 diacid])EGQAAREFIEWLT(Bn)KGRG-NH2 (not fully specified; printed as N-ε^20({2-[2-(2-{2-[2-((R)-3-carboxy-3-{[1-(17-carboxyheptadecanoyl)piperidine-4-carbonyl]amino}propionylamino)ethoxy]ethoxy}acetylamino)ethoxy]ethoxy}acetyl) [Aib^8,Lys^20,Arg^28,Glu^30,Thr(O-benzyl)^33,]GLP-1-(7-37)amide, Arg26 used; also called [Aib^8,Lys^20,Arg^26,Glu^30,Thr(O-benzyl)^33,]GLP-1-(7-37)amide derivative)",
    "EC50": "300 to 800 nM"
  }
]

Now, please, on to the next binder.
query: For the binder [Desaminohistidyl]AEGTFTSDVSSYLEGQAAREFIAWLVRGRGK-NH2 (not fully specified (residue 32); printed as [desaminoHis^7,Arg^26,Arg^34]GLP-1-(7-37)Lys[2-(2-[2-(2-[2-(2-((R)-3-[trans-4-((9-Carboxynonadecanoylamino]methyl)cyclohexylcarbonylamino]3-carboxypropionylamino)ethoxy)ethoxy]acetylamino)ethoxy]ethoxy)acetyl]amide) , give its reported EC50.
result: > 2000 nM
